Reported activity coefficient values are given for each entry in this list.
- PROTOCOL_TEXT: activity coefficient (dimensionless); of the first substance listed, at infinite dilution; xn = mol fraction of the nth substance listed
- EXPERIMENTAL_CONTEXT: 363.2 K; 101 kPa; Liquid; Chromatography; x1 = 0
Hey, just send me the number, nothing else.

In [3]: df
Out[3]:
                              compound  observed_value
0  C1CCCC1 [cyclopentane] + OCCOCCOCCO            12.7
1   C1CCCCCCC1 [cyclooctane] + OCCOCCO            52.2
2           CCO [ethanol] + OCCOCCOCCO            1.12
3         C=CCCC [1-pentene] + OCCOCCO            27.6
4       C#CCCCCCC [1-octyne] + OCCOCCO              27

Query: Please give the measured activity coefficient for this compound: CC(C)O [propan-2-ol] + OCCOCCO
Response: 1.74

Query: Which value of activity coefficient has been reported for c1ccccc1 [benzene] + OCCOCCO in the records?
Response: 7.05

Query: Given CO [methanol] + OCCOCCO , state its recorded activity coefficient.
Response: 1.02

###

- PROTOCOL_TEXT: activity coefficient (dimensionless); of the first substance listed, at infinite dilution; xn = mol fraction of the nth substance listed
- EXPERIMENTAL_CONTEXT: 363.2 K; 101 kPa; Liquid; Chromatography; x1 = 0
Some molecules, each annotated with its measured activity coefficient.
Note: the reply should be a number with no unit written.

                                molecule  observed_value
0  C1CCCCCCC1 [cyclooctane] + OCCOCCOCCO            23.9
1        CCCCCCCCC [nonane] + OCCOCCOCCO            83.1
2           CCCO [propan-1-ol] + OCCOCCO            1.74

Okay, now this molecule:
Query: Looking for the measured activity coefficient of C#CCCC [1-pentyne] + OCCOCCO , can you help?
Response: 10.2
